tested on: HOP-18 NSCLC; assay: NCI tumour cell line growth inhibition, 48 h

| compound | TGI |
| --- | --- |
| CCCCCCC/C=C1\CCC(CN(C)C)C1=O (stereo unspecified) | 31.4 µM |
| OCCCCCNc1ccnc2cc(Cl)ccc12 | > 100 µM |
| CC(C)C1NC(=O)[C@H](C)OC(=O)[C@@H](C(C)C)NC(=O)[C@@H](C)OC(=O)C(C(C)C)NC(=O)[C@H](C)OC1=O (stereo partly specified) | > 100 µM |
| CC(C)=CCC/C(C)=C/CC/C(C)=C/C1CCC(=O)C1(C)C (stereo unspecified) | 63.1 µM |
| CCOC(=O)NC(=O)c1cn(C2OC(COC(=O)CCCCCCCCC(=O)OCC3OC(n4cc(C(=O)NC(=O)OCC)c(=O)[nH]c4=O)C4OC(C)(C)OC34)C3OC(C)(C)OC32)c(=O)[nH]c1=O (stereo unspecified) | > 100 µM |
| COc1ccc2c(c1)c(=O)c1c(NCCCN(C)C)ccc3ncn2c31 | 28.6 µM |
| Cc1ccc(-c2cc(=O)c3cc(C)c(C)c(C(=O)O)c3o2)cc1[N+](=O)[O-] | > 100 µM |
| CCCCCN(CCCCC)C(=O)[C@H](CCC(=O)OCc1ccccc1)NC(=O)c1cc2ccccc2[nH]1 | > 100 µM |
| COc1ccc(OCC(C)(C)O)cc1 | > 100 µM |
| CC(CCC(=O)O)c1ccc(Br)cc1 (stereo unspecified) | > 100 µM |
| CC(C)(C)C1CCC(=O)C(C(O)CC2CC(=O)N(c3ccccc3)C(=O)C2)C1 (stereo unspecified) | > 100 µM |

---

tested on: CCRF-CEM leukemia; experiment: NCI tumour cell line growth inhibition, 48 h
propertyName: TGI

| compound | propertyName | recordedResult |
| --- | --- | --- |
| COC1C(O)CC(OC2CC(OC3CC(O[C@@H]4C(=O)c5c(cc6cc(OC7CC(OC8CC(O)C(O)C(C)O8)C(O)C(C)O7)c(C)c(O)c6c5O)CC4[C@H](OC)[C@@H](O)C(C)=O)OC(C)C3O)OC(C)C2O)OC1C (stereo partly specified) | TGI | > 33.3 µM |
| ClCCc1ccccc1CC1=NCCc2ccccc21 | TGI | > 100 µM |
| Clc1nc(-c2ccccc2)nc(Cl)c1Cl | TGI | 7.99 µM |
| COc1c(Cl)[c]([Hg][O]C(C)=O)c(NCC(C)=O)c(OC)[c]1[Hg][O]C(C)=O | TGI | 34.4 µM |
| CNC(=O)OCC1=C(COC(=O)NC)C(C)N(c2ccccc2)C1 (stereo unspecified) | TGI | > 100 µM |
| C[C@@H]1OC(=O)NN=C1c1ccc(-c2ccc(F)cc2)c(C(F)(F)F)c1 | TGI | > 100 µM |
| COc1ccc(/C=C2\CCc3ccccc3C2=O)cc1OC | TGI | > 100 µM |
| COC(=O)C1SC[C@H]2C(=O)N(c3ccccc3)C(=O)N12 (stereo partly specified) | TGI | > 100 µM |
| Cc1ccc(NC(=S)N=Nc2c(O)[nH]c3ccccc23)cc1 | TGI | > 100 µM |
| CCCCCC(=C/c1ccccc1)/C=N/N=C(N)N | TGI | 5.04 µM |
| COC(=O)[C@]1(Cc2ccc3ccccc3c2)CCCCCCN1C(=O)c1ccccc1 | TGI | > 53.7 µM |
| CC(=O)OCc1nnn2c1CCC2 | TGI | > 100 µM |
| C#CCN(Cc1nc2cc(C(F)(F)F)ccc2nc1-c1ccccc1)c1ccc(F)cc1 | TGI | > 100 µM |
| CN(/N=C/c1ccccc1C(=O)O)C1=NCCCCN1 | TGI | > 100 µM |
| COc1ccc2c(c1)C=C(C(C)(C)C)NS2(=O)=O | TGI | > 100 µM |
| COc1ccc(-c2nc(SC)n(C3OC(COC(C)=O)C(OC(C)=O)C(OC(C)=O)C3OC(C)=O)c(=O)c2C#N)cc1 (stereo unspecified) | TGI | > 100 µM |
| COc1ccc(NS(=O)(=O)c2ccc(N=C3C=C(Nc4ccc(S(=O)(=O)Nc5ccc(OC)nn5)cc4)C(=O)c4ccccc43)cc2)nn1 | TGI | > 100 µM |
| CCOC(=O)c1csc(-c2nc(CCNC(=O)c3ccccc3)sc2Cl)n1 | TGI | > 100 µM |
| S=C1SCN(C2CCCCCCCCCCC2)CN1C1CCCCCCCCCCC1 | TGI | > 100 µM |
| CCOc1ncnc2ccc(Cl)c(I)c12 | TGI | > 100 µM |
| Nc1ncnc2c1cnn2COCC(O)CO (stereo unspecified) | TGI | > 100 µM |
